Quick reference: inhibition of the listed items.
- ASSAY_DETAILS: 384-well plate pilot, post-Golgi transport modulator project, inhibition of yeast transport mutant growth (AID 636)
- CONDITION: absorbance 615 nm, about 18 h, stronger effect = higher value
Report the value in % with no unit label.

Known results for compounds:
[[record]]
compound = "COc1ccccc1N=Cc1nc(-c2ccccc2)oc1OC(C)=O"
endpoint_value = -4.61

[[record]]
compound = "O=C(c1cccnc1)N1CCc2ccccc21"
endpoint_value = -5.68

[[record]]
compound = "COc1ccc2cc(C(c3nnnn3C3CCCCC3)N3CCCCCC3)c3nnnn3c2c1 (stereo unspecified)"
endpoint_value = -4.8

[[record]]
compound = "COc1ccc(N2CCC(CNS(=O)(=O)c3cccc(C(F)(F)F)c3)C2)cc1 (stereo unspecified)"
endpoint_value = -2.63

[[record]]
compound = "CCC1CCCN1Cn1cnc2c([nH]c3ccc(OC)cc32)c1=O (stereo unspecified)"
endpoint_value = -5.6


Value lookup for inhibition; key = Cc1ccc(CS(=O)(=O)CCC(=O)NCC2CCCO2)cc1 (stereo unspecified) -7.03

====

- ASSAY_DETAILS: reducers of endogenous Her2 protein level, primary screen, SKBR3 breast tumor cells, AlphaScreen, ATP viability (AID 461);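 further: percent of carrier control wells set as 100% viability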
- CONDITION: 18-24 h, measured here: SKBR3 viability, ATP luminescence, at 10 µM
Peptide text beside a SMILES is read from it. * marks the point of attachment. Boc = CC(C)(C)OC(=O)*
Quick reference: viability of the listed items.
Report the value in % with no unit label.

Known results for molecules:
[[record]]
molecule = "CCCCCCCC(=O)OCC(=O)[C@@]1(O)CC[C@H]2[C@@H]3CCC4=CC(=O)CC[C@]4(C)[C@H]3[C@@H](O)C[C@@]21C"
endpoint_value = 120

[[record]]
molecule = "CC(C)CNS(=O)(=O)c1ccc(OCC(=O)Nc2ccc3c(c2)OCO3)c(Cl)c1"
endpoint_value = 89.5

[[record]]
molecule = "O=c1c[n+]([O-])c2ccccc2n1OCc1c(F)cccc1F"
endpoint_value = 90.5


Value lookup for viability; key = CC(=O)OCC1OC(c2ccccc2)C(OC(C)=O)C(OC(C)=O)C1OC(C)=O (stereo not drawn) 90

Value lookup for viability; key = O=C(c1ccco1)N1CCN(c2cccc(Cl)c2)CC1 101

Value lookup for viability; key = CN(C=O)CP(=O)(O)CCN1CCCC1=O 126

Value lookup for viability; key = COc1ccccc1N=Cc1nc(-c2ccccc2)oc1OC(C)=O 99

Value lookup for viability; key = CC(n1cnnn1)C12CC3CC(CC(C3)C1)C2 (stereo not drawn) 88.5

Value lookup for viability; key = Cn1c([N+](=O)[O-])cnc1COC(N)=O 108

Value lookup for viability; key = COc1ccc(CN(C(=O)c2oc3ccccc3c2C)C2CCS(=O)(=O)C2)cc1 (stereo not drawn) 86

Value lookup for viability; key = CC(C)(C)OC(=O)N1CCCC1C(=O)NC(Cc1ccccc1)C(=O)O (stereo not drawn) (Boc-Pro-Phe-OH; configuration not given here) 116

Value lookup for viability; key = CCS(=O)(=O)N1CCC(C(=O)NCCc2ccc(C)cc2)CC1 99

Value lookup for viability; key = Cc1ccc(CS(=O)(=O)CCC(=O)NCC2CCCO2)cc1 (stereo not drawn) 96.5

Value lookup for viability; key = O=C(CSc1nnc(Cc2cc(=O)[nH]c(=O)[nH]2)n1-c1ccccc1)NCC1CCCO1 (stereo not drawn) 99

Value lookup for viability; key = Cc1cccn2c(=O)c3cc(C#N)c(=NC(=O)c4cccnc4)n(CC4CCCO4)c3nc12 (stereo not drawn) 92.5

Value lookup for viability; key = O=C(CSc1nnc(-c2ccccc2)c(-c2ccccc2)n1)N1CCOCC1 97

Value lookup for viability; key = C[C@H]1C[C@@H]2[C@H]([C@@H](O)C[C@@]3(C)[C@H]2CC[C@]3(O)C(=O)CO)[C@@]2(C)C=CC(=O)C=C12 115

Value lookup for viability; key = Cc1ccc(N2CC(C(=O)Nc3nnc(C)s3)CC2=O)cc1 (stereo not drawn) 110

Value lookup for viability; key = CCC1(C)Cc2c(C#N)c(N)n(-c3ccccc3)c(=O)c2CO1 (stereo not drawn) 100

Value lookup for viability; key = COc1ccc(-n2c(Cc3cccn3C)nnc2SCC(=O)Nc2cccc(OC)c2)cc1 106

Value lookup for viability; key = CCn1nnnc1SCC(=O)Nc1nnc(C(C)C)s1 88.5

Value lookup for viability; key = Cc1cccc(OCCCC(=O)O)c1 101

Value lookup for viability; key = COc1ccccc1OCC(O)COC(N)=O (stereo not drawn) 93.5
